I'd be grateful if you could share measured pEC50 for these entries.
# Test system: RSV A2
# Method Description: RSV RT-PCR based assay
# Type: cell-based
# Study Conditions: human respiratory syncytial virus; RT-PCR assay; HEp-2 cells; 24 hour compound pre-incubation; RSV A2 at MOI 0.1; 4 days after infection; viral load; read-out: EC50
pEC50: −log10 of the molar value.

These recorded examples may help you get a feel for the data.
>  <Compound>
[N-]=[N+]=N[C@]1(CO)O[C@@H](n2cnc3c(=O)[nH]c(N)nc32)[C@@H](O)[C@@H]1O

>  <Result>
< 4.00

$$$$
>  <Compound>
C[C@H](NP(=O)(OC[C@@]1(N=[N+]=[N-])O[C@@H](n2cnc3c(=O)[nH]c(N)nc32)[C@H](O)[C@@H]1O)Oc1ccccc1)C(=O)OC1CCCCC1 (stereo partly drawn)

>  <Result>
> 6.00

$$$$
>  <Compound>
C[C@@]1(n2ccc(N)nc2=O)O[C@@](CO)(N=[N+]=[N-])[C@@H](O)[C@H]1O

>  <Result>
< 4.00

$$$$
>  <Compound>
COc1nc(N)nc2c1ncn2[C@@H]1O[C@@](CO)(N=[N+]=[N-])[C@@H](O)[C@H]1F

>  <Result>
> 6.00

$$$$
>  <Compound>
[N-]=[N+]=N[C@]1(CO)O[C@@H](n2ccc(N)nc2=O)C(F)(F)[C@@H]1O

>  <Result>
> 6.00

$$$$

Now look at this entry.
[ask] Output measured pEC50 for this item: [N-]=[N+]=N[C@]1(CO)O[C@@H](n2ccc(N)nc2=O)[C@H](Cl)[C@@H]1O
[reply] 5.00 to 6.00

----------
# System: RSV Long strain
# Method Description: RSV CPE reduction assay
# Assay type: cell-based
# Study Conditions: human respiratory syncytial virus, 144 h; CPE assay; HEp-2 cells infected with RSV Long strain, m.o.i. 0.01; 6 days; CCK-8 readout; read-out: EC50
Answer each item with its documented EC50.

>  <Compound>
[N-]=[N+]=N[C@]1(CO)O[C@@H](n2cnc3c(=O)[nH]c(N)nc32)[C@H](O)[C@@H]1O

>  <EC50>
< 1 µM

$$$$
>  <Compound>
[N-]=[N+]=N[C@]1(CO)O[C@@H](n2ccc(N)nc2=O)[C@H](F)[C@@H]1O

>  <EC50>
< 1 µM

$$$$

Please go through the list and note EC50 for each compound.
1. C[C@@]1(n2ccc(N)nc2=O)O[C@@](CO)(N=[N+]=[N-])[C@@H](O)[C@H]1O
2. [N-]=[N+]=N[C@]1(CO)O[C@@H](n2ccc(=O)[nH]c2=O)[C@@H](O)[C@@H]1O
3. [N-]=[N+]=N[C@]1(CO)O[C@@H](n2cnc3c(=O)[nH]c(N)nc32)[C@@H](O)[C@@H]1O

[reply]
1. > 100 µM
2. > 100 µM
3. > 100 µM

Go through the items and report each one's EC50.
1. CC(C)OC(=O)[C@H](C)NP(=O)(OC[C@@]1(N=[N+]=[N-])O[C@@H](n2cnc3c(N)ncnc32)[C@H](F)[C@@H]1O)Oc1ccccc1 (some centres unmarked)
2. CC(C)OC(=O)[C@H](C)NP(=O)(OC[C@@]1(N=[N+]=[N-])O[C@@H](n2ccc(N)nc2=O)[C@H](F)[C@@H]1O)Oc1ccccc1 (some centres unmarked)

[reply]
1. 1 to 10 µM
2. 1 to 10 µM

Fill in EC50 for each of the 2 compounds listed.
1. C[C@@H]1[C@H](n2ccc(N)nc2=O)O[C@@](CO)(N=[N+]=[N-])[C@H]1O
2. [N-]=[N+]=N[C@]1(CO)O[C@@H](n2cnc3c(N)ncnc32)[C@H](F)[C@@H]1O

[reply]
1: > 100 µM; 2: > 100 µM

Quick batch: EC50 for everything below.
1. [N-]=[N+]=N[C@]1(CO)O[C@@H](n2cnc3nc(N)[nH]c(=O)c32)[C@H](O)[C@@H]1O
2. [N-]=[N+]=N[C@]1(CO)O[C@@H](n2ccc(=O)[nH]c2=O)[C@H](O)[C@@H]1O
3. [N-]=[N+]=N[C@@]12COP(=O)(O)O[C@H]1[C@@H](F)[C@H](n1ccc(=O)[nH]c1=O)O2
4. [N-]=[N+]=N[C@]1(CO)O[C@@H](n2ccc(N)nc2=O)[C@H](O)[C@@H]1O
5. CC(C)OC(=O)[C@H](C)NP(=O)(OC[C@@]1(N=[N+]=[N-])O[C@@H](n2ccc(=O)[nH]c2=O)[C@@H](F)[C@@H]1O)Oc1ccccc1 (some centres unmarked)

[reply]
1: > 100 µM; 2: > 100 µM; 3: > 100 µM; 4: 10 to 100 µM; 5: > 100 µM

Parameters: items (list). Returns: EC50 for each item.
1. [N-]=[N+]=N[C@]1(CO)O[C@@H](n2ccc(=O)[nH]c2=O)C(F)(F)[C@@H]1O
2. CC(C)OC(=O)[C@H](C)NP(=O)(OC[C@@]1(N=[N+]=[N-])O[C@@H](n2ccc(=O)[nH]c2=O)[C@H](O)[C@@H]1O)Oc1ccccc1 (some centres unmarked)
3. CC(C)OC(=O)[C@H](C)NP(=O)(N[C@@H](C)C(=O)OC(C)C)OC[C@@]1(N=[N+]=[N-])O[C@@H](n2ccc(=O)[nH]c2=O)C(F)(F)[C@@H]1O
4. CC(C)OC(=O)[C@H](C)NP(=O)(OC[C@@]1(N=[N+]=[N-])O[C@@H](n2ccc(=O)[nH]c2=O)C(F)(F)[C@@H]1O)Oc1ccccc1 (some centres unmarked)
5. CC(C)OC(=O)[C@H](C)NP(=O)(OC[C@@]1(N=[N+]=[N-])O[C@@H](n2ccc(N)nc2=O)C(F)(F)[C@@H]1O)Oc1ccccc1 (some centres unmarked)
6. CC(C)OC(=O)[C@H](C)NP(=O)(OC[C@@]1(N=[N+]=[N-])O[C@@H](n2ccc(N)nc2=O)[C@@H](O)[C@@H]1O)Oc1ccccc1 (some centres unmarked)
7. [N-]=[N+]=N[C@]1(CO)O[C@@H](n2cnc(C(N)=O)n2)[C@H](O)[C@@H]1O

[reply]
1: > 100 µM; 2: < 1 µM; 3: > 100 µM; 4: > 100 µM; 5: 1 to 10 µM; 6: > 100 µM; 7: 10 to 100 µM

Look up EC50 for the entries below, preserving their order.
1. CC(C)OC(=O)[C@H](C)NP(=O)(OC[C@@]1(N=[N+]=[N-])O[C@@H](n2ccc(N)nc2=O)[C@H](O)[C@@H]1O)Oc1ccccc1 (some centres unmarked)
2. [N-]=[N+]=N[C@]1(CO)O[C@@H](n2cnc3c(=O)[nH]c(N)nc32)[C@H](F)[C@@H]1O

[reply]
1. < 1 µM
2. < 1 µM
